- MEASURED_TARGET: Phosphatidylinositol 4,5-bisphosphate 3-kinase catalytic subunit gamma isoform (Homo sapiens)
- Sequence (P48736 whole entry, canonical isoform): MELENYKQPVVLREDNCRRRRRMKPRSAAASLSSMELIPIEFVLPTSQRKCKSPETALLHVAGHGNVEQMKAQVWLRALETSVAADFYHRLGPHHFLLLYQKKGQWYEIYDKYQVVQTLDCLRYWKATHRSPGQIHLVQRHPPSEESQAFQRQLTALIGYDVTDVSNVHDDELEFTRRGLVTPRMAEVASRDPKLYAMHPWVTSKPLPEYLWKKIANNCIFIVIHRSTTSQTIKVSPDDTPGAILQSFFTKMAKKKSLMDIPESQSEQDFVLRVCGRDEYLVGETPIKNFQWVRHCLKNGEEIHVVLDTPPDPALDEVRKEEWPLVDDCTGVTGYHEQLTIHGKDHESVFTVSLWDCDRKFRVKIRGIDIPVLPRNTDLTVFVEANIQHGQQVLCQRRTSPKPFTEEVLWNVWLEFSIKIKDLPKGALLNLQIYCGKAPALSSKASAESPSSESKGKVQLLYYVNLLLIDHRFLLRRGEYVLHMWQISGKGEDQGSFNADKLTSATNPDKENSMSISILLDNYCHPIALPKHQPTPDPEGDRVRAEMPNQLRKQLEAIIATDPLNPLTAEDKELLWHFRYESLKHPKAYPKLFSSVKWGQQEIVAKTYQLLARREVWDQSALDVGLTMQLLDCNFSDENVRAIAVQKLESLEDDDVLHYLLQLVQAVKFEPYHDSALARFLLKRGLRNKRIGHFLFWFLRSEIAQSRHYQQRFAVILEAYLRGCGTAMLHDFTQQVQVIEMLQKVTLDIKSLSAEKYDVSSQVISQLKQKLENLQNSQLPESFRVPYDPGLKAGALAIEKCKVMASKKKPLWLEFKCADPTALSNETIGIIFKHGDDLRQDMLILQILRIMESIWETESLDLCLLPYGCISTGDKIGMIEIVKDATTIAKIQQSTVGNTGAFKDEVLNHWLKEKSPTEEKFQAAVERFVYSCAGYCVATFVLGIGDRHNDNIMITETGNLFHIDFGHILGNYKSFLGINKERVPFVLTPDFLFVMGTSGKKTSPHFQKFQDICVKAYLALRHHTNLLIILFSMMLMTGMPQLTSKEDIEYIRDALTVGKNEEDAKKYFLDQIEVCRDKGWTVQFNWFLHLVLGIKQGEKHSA
- EXPERIMENTAL_PROTOCOL: Inhibition of human full length PI3K p110gamma using […] as substrate measured after 30 mins by TR-FRET assay

{"COMPOUND": "C[C@H](Nc1nc(N)nc(N)c1C#N)c1nc2c(F)ccc(Cl)c2c(=O)n1-c1cncc(F)c1", "IC50, nM": 120}
{"COMPOUND": "Cc1ncccc1-n1c([C@H](C)Nc2nc(N)nc(N)c2C#N)nc2cccc(Cl)c2c1=O (stereo in doubt; 23)", "IC50, nM": 160}
{"COMPOUND": "C[C@H](Nc1nc(N)nc(N)c1C#N)c1nc2cccc(Cl)c2c(=O)n1-c1cncc(F)c1", "IC50, nM": 150}
{"COMPOUND": "C[C@H](Nc1nc(N)nc(N)c1C#N)c1nc2cccc(Cl)c2c(=O)n1-c1cccnc1", "IC50, nM": 72}

* * *

- MEASURED_TARGET: PI3K p110 beta/p85 alpha (Homo sapiens, UniProt P42338)
- Sequence (P27986 whole entry): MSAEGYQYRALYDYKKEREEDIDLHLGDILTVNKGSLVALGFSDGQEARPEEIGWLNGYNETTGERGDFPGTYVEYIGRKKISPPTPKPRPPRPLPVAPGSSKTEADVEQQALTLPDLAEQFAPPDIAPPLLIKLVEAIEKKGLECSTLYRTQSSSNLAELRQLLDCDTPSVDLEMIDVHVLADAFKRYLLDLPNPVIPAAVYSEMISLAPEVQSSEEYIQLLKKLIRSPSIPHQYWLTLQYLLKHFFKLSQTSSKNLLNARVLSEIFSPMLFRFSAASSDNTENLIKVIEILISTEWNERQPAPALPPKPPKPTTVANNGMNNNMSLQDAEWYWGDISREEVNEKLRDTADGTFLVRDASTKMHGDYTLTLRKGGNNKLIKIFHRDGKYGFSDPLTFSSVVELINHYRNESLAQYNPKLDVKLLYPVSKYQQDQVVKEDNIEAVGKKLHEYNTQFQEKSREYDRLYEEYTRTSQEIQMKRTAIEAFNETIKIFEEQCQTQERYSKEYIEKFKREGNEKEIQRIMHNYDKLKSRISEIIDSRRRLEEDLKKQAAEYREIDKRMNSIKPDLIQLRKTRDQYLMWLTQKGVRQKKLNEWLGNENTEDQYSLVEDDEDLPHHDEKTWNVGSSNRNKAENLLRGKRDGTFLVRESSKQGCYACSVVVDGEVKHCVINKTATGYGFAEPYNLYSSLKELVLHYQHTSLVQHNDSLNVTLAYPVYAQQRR
- Sequence (P42338 whole entry): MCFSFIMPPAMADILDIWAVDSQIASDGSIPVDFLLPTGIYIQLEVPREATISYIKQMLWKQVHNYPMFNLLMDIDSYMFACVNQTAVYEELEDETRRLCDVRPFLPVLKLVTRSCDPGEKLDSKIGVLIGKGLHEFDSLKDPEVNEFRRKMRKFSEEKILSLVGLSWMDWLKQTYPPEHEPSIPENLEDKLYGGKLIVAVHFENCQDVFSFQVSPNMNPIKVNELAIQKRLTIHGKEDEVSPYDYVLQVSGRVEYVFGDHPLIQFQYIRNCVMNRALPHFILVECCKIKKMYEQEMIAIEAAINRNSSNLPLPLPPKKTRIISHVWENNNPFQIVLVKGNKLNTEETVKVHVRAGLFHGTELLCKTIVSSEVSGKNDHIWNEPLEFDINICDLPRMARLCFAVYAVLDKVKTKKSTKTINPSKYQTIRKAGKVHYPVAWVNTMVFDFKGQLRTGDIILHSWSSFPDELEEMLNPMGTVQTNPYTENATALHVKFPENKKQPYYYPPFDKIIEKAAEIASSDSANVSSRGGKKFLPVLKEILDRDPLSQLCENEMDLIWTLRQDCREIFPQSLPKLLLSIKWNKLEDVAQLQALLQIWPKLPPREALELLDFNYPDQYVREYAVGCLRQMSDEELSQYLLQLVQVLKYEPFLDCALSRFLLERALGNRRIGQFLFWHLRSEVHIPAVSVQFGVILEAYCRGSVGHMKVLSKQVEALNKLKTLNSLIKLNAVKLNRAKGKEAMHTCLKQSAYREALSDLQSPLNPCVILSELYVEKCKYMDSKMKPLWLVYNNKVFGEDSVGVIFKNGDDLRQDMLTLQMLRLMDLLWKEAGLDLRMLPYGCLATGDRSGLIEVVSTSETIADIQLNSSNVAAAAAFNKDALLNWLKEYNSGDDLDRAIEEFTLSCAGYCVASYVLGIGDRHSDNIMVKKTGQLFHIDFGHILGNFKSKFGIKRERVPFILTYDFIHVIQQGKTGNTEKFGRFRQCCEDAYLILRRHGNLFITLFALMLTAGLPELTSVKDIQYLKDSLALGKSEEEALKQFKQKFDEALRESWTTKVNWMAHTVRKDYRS
- EXPERIMENTAL_PROTOCOL: Inhibition of recombinant human full-length N-terminal His-tagged PI3K p110beta/p85alpha using […] as substrate measured after 30 mins by TR-FRET assay
# maps each entry to its IC50
MEASUREMENT_LABEL: IC50 (nM)

{"COMPOUND": "C[C@H](Nc1nc(N)nc(N)c1C#N)c1nc2cccc(Cl)c2c(=O)n1-c1cncc(C2CC2)c1", "MEASUREMENT_LABEL": "IC50", "READOUT_UNITS": "nM", "RECORDED_MEASUREMENT": 2600}
{"COMPOUND": "C[C@H](Nc1nc(N)nc(N)c1C#N)c1nc2c(Cl)cccc2c(=O)n1-c1cccnc1", "MEASUREMENT_LABEL": "IC50", "READOUT_UNITS": "nM", "RECORDED_MEASUREMENT": 390}
{"COMPOUND": "CC[C@H](Nc1nc(N)nc(N)c1C#N)c1nc2c(F)ccc(Cl)c2c(=O)n1-c1cccnc1", "MEASUREMENT_LABEL": "IC50", "READOUT_UNITS": "nM", "RECORDED_MEASUREMENT": 310}
{"COMPOUND": "C[C@H](Nc1nc(N)nc(N)c1C#N)c1nc2cccc(Cl)c2c(=O)n1-c1cccnc1", "MEASUREMENT_LABEL": "IC50", "READOUT_UNITS": "nM", "RECORDED_MEASUREMENT": 100}
{"COMPOUND": "Cc1ccncc1-n1c([C@H](C)Nc2nc(N)nc(N)c2C#N)nc2cccc(Cl)c2c1=O (stereo in doubt; 25)", "MEASUREMENT_LABEL": "IC50", "READOUT_UNITS": "nM", "RECORDED_MEASUREMENT": 21}
{"COMPOUND": "Cc1ccncc1-n1c([C@H](C)Nc2nc(N)nc(N)c2C#N)nc2cccc(Cl)c2c1=O (stereo in doubt; 26)", "MEASUREMENT_LABEL": "IC50", "READOUT_UNITS": "nM", "RECORDED_MEASUREMENT": 370}
{"COMPOUND": "C[C@H](Nc1nc(N)nc(N)c1C#N)c1nc2cccc(Cl)c2c(=O)n1-c1ccccc1", "MEASUREMENT_LABEL": "IC50", "READOUT_UNITS": "nM", "RECORDED_MEASUREMENT": 9.4}
{"COMPOUND": "C[C@H](Nc1nc(N)nc(N)c1C#N)c1nc2cccc(Cl)c2c(=O)n1-c1cncc(C(F)(F)F)c1", "MEASUREMENT_LABEL": "IC50", "READOUT_UNITS": "nM", "RECORDED_MEASUREMENT": 4800}

Sourced from ChEMBL document CHEMBL4765230
